# experimental.details: Solubility of volatile organic halide in carbonic acid aqueous solution (Example 3)
# Assay type: physicochemical
# test.settings: natural water (Eapin; carbonated ion concentration 0 mg/L), 20.7 °C, water, thermodynamic from solid, Carbonated ion concentration 0 mg/L (natural water), read-out: Detected amount of trichloroethylene (saturated solubility)

smiles.str: ClC=C(Cl)Cl
solubility at 24 h / µg/mL: 750

----------
# experimental.details: Solubility of volatile organic halide in carbonic acid aqueous solution (Example 3)
# Type: physicochemical
# test.settings: 20.7 °C, aqueous buffer, thermodynamic from solid, Carbonated ion concentration 7700 mg/L, read-out: Detected amount of trichloroethylene (saturated solubility)
# Method: Using a carbonic acid aqueous solution having carbonated ion-concentration of 7,700 mg/L (i.e., 7,700 ppm) and natural water (trade name: Eapin; carbonated ion-concentration of 0 mg/L), four kinds of carbonic acid aqueous solutions (i.e., carbonated ion-concentration: 340 mg/L, 920 mg/L, 1700 mg/L and 7,700 mg/L) were prepared. Using a syringe, 0.14 g of excess trichloroethylene was added to the water or solution, and each linked part in the Glass-Vials was sealed by the use of Teflon tape. […]

smiles.str: ClC=C(Cl)Cl
solubility at 24 h: 1300 µg/mL
